The values you see were collected from the RNAGym collection of RNA variant scans (doi:10.1073/pnas.2313332121).

B1: TPR t1 (parent)
chain: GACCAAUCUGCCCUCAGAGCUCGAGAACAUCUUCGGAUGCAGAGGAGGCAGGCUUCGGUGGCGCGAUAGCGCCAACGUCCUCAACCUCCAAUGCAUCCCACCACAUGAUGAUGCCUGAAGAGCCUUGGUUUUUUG

variants of: B1; experiment: polymerase ribozyme fitness, log enrichment relative to wild type (log ratio); higher = more active; in vitro selection for triplet polymerase activity
Outcome label depends on polymerase ribozyme fitness (log ratio) relative to -3: at/above gives satisfied, below gives not satisfied.

U9A C85U    satisfied

Prompt line: Check this variant for polymerase ribozyme fitness (log ratio) at or above -3: C20U C97G
Response line: not satisfied

Prompt line: Check this variant for polymerase ribozyme fitness (log ratio) at or above -3: A46U A74C C88G
Response line: not satisfied

Prompt line: Check this variant for polymerase ribozyme fitness (log ratio) at or above -3: C12U A50U C56G
Response line: satisfied

Prompt line: Check this variant for polymerase ribozyme fitness (log ratio) at or above -3: U9A U116C
Response line: satisfied

Prompt line: Check this variant for polymerase ribozyme fitness (log ratio) at or above -3: C3U G10A G44C C49A G120U
Response line: satisfied

Prompt line: Check this variant for polymerase ribozyme fitness (log ratio) at or above -3: G47C C64U A90C C104U
Response line: satisfied

Prompt line: Check this variant for polymerase ribozyme fitness (log ratio) at or above -3: G63U A90U G113C
Response line: not satisfied

Prompt line: Check this variant for polymerase ribozyme fitness (log ratio) at or above -3: A74U U130G
Response line: satisfied

Prompt line: Check this variant for polymerase ribozyme fitness (log ratio) at or above -3: C13A C49G C56G U96A
Response line: not satisfied
